Reported apparent KD of MS2 coat protein values for the following sequences.
- Tested on: MS2 coat protein
- run_description: apparent KD of MS2 coat protein; higher = weaker reporter binding
- condition_context: Eterna round: R107; input ligand: theophylline 2 mM
API: value field is a number in nM; no unit string.

Examples from the recorded data:
GGCACCAGGAGAAGGAGCGUGAAGACAUGAGGAUCACCCAUGUAGAGGCCCGUACCGGGUUCGCAGGUAGGUCGCUCCUGGUGCC [#1 Same State - Arginine B Attempt #14 (HarryS)]    27.1
UCUGGUAUGACGGCCGCCACUAGAUCGUGAGAAGCCUGCAUACAUGAGGAUCACCCAUGUCUCACUAGGACCGGGUCAUUCCAAU [theeternabot_sameState_MS2_Trp_B_5]    119
GAGGAAACUCACAUGAGGAUCACCCAUGUACGAGGACCGGUACGGCCGCCACUCGAAACCAUGGGCGGUAGUACGUGGAAGCUUG [Design 2 MOD 2]    23.8
UGUAUGGACUGAAGGAGCGCCUCAAACAUGAGGAUCACCCAUGUGGACAAAUAAGUCCUUGGGCAGGUAGGUCGCAGUCCAUACU [ArgBX 7 #StaticStem #MS2Late]    90.6
ACAUGAGGAUCACCCAUGUAACCUAGGGAAGGAGCGGUGUAAGAGCCAGGUAGGUCGCCCACAUGUGGAUCACCCAUGGUGAGGG [#24 Same State - Arginine A]    39.2
UGGGUACAUGAGGAUCACCCAUGUACUGAAGGAGCGAGAAUUAUCUCAGGUAGGUCGCAGACAUGAGGAUCACCCAUGUAGUAGG [Exclusion Arginine A GF 12]    37.2

Now look at this one.
Item: ACGAUAGGACCUGAGGAUCACCCAGGUGAUACCAGCCUGGAAACAGGCCCUUGGCAGCACCAAUACUCCAAUAACCUAUCGAAUA [TheoAX 11 #MicroSwitchBubble #AlternativeMS2] | apparent KD of MS2 coat protein: 372

====

- System: MS2 coat protein
- run_description: apparent KD of MS2 coat protein; designed switch direction (-1 OFF switch, 1 ON switch): -1; higher = weaker reporter binding
- condition_context: Eterna round: R95; input ligand: microRNA oligo, concentration not stated
Reported apparent KD of MS2 coat protein values for the following sequences.
API: value field is a number in nM; no unit string.

Item: GUGUGCUGAGGAUAUACAUAGGAAGAGAAGAGAAGAGAAGGACAUGAGGAUCACCCAUGUAGAAGGCAGAGUGU [Excluse me!! 12 - Jieux - Exclusion 2] (puzzle: Exclusion 2) | apparent KD of MS2 coat protein: 24.5

====

- Test system: K4 kissing-loop RNA reporter
- run_description: apparent KD of K4 kissing-loop reporter; higher = weaker reporter binding
- condition_context: Eterna round: R107; input ligand: none
quantity_kind: apparent KD of K4 kissing-loop reporter (nM)
API: value field is a number in nM; no unit string.

Examples from the recorded data:
GGAUAGGAGAGAGGAUAUGGGCUAGGCAAGAAUAACUUGUCUAGCAAAUCCAUGAGGAGUGAUGUUCCAGAAGGCUCUCCUAUCG [FmnBX 1 G9+C77]    153
UUUCUUUUAAUAACACUUUAUACAACUGAAGGAGCGACAAUAAAGUCAGGUAGGUCGCAGAAUUAAUGAGUGAUGUUCAUAUUUA [JR_ExcArginiA_Sub012]    121
UGGAGUUGACGAAAAGUCAACUCCUGAGAAGGAGCGGACGAAAGUCCAGGUAGGUCGCUCACUACCAGUGAUGUUGGUACUAAAA    141
AUUUUUUUAUCAGGAUAUUAGUGAUGUUUGUUUUUGUUAGUGAUGUUGAUAUUUGUUUUAUGUAUUUAAGAAGGGAUUGAGAUGU [sfsmullin]    28.2
ACAGAUUGAUUGAUUCACUUUGUAGCUGCGAAGGAUAUUAAGACGCUAAGAAGGUCGCUUAAGGGUAGUGAUGUUACCUUUUGAG [theeternabot_sameState_KL_FMN_A_27]    57.8

Item: GUAGACAGACUGCGGGCCUAGUCUACAGACUAGGAUAUCAGGAAACUGAGAAGGAGUCUAGUUGCAGUGAUGUUGCAAGAAUAAU [KL-SSFMN-A26] | apparent KD of K4 kissing-loop reporter: 93.6

Item: `GCCGUAGAUUGAAGGAGCGUGGAACUAUGGCUUGAACAGUGAUGUUGUUUAUCUAGGUAGCCGCAGGUAGGUCGCAAUCUACGGC` | apparent KD of K4 kissing-loop reporter: 270

Item: UCAUGUGCCAGUGAUGUUGGCGUACGUGAUACCAGACGAAUAAAAGUCCCUUGGCAGCACAAAUAAGCCAAGAUAGAUGAAUGAU [Exclusion Theophylline A GF 1] | apparent KD of K4 kissing-loop reporter: 132

====

Reported apparent KD of K4 kissing-loop reporter values for the following sequences.
- System: K4 kissing-loop RNA reporter;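 further: bound reporter read as fluorescence of individual clusters on recovered sequencing chips by microscopy, with normalized cluster intensities fitted with a binding model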
- run_description: apparent KD of K4 kissing-loop reporter; higher = weaker reporter binding
- condition_context: Eterna round: R107; input ligand: arginine 13.2 mM
API: value field is a number in nM; no unit string.

Item: CACAAUUAAUUACAGUGAUGUUGUAAUCUGCGAGGACCGGUACGGCCGCCACUCGGGCUUGUAGGGCGCCCACAUUCUUAUACUA [theeternabot_sameState_KL_Trp_A_29] | apparent KD of K4 kissing-loop reporter: 348

Item: AAGAAGAAUGGAAGGAGCGAGCAGAUAUAACCAGUGAUGUUGGAAAGCCUUAUUGCUUAAGCUCAGGUAGGUCGCCAAGAAAAGA [whbob_Ex_Arginine_B_2t151] | apparent KD of K4 kissing-loop reporter: 153

Item: GCCAGUGAUGUUGGCGAACCAACGCAUGCAGAGGAUAUUCGUUCUGGAAGAAGGCUGCAGCGUUAUCAAACGCAGUGAUGUUGCG [Same State FMN A GF 26] | apparent KD of K4 kissing-loop reporter: 134

====

- Tested on: MS2 coat protein
- run_description: apparent KD of MS2 coat protein; designed switch direction (-1 OFF switch, 1 ON switch): -1; higher = weaker reporter binding
- condition_context: Eterna round: R95; input ligand: none
quantity_kind: apparent KD of MS2 coat protein (nM)
API: value field is a number in nM; no unit string.

CUGAGGUAGCGGUCCUAUGACAUGAGGAUCACCCAUGUGCCUUGCUACAAGCUUUUUGCUCGUCUUAUGAUUCUCGG [JL Atriat mod 9] (puzzle: Sensor v3, turn-off variant 1)    51.9
AAGUACCGUCACGAUAGUGAUGGUACAACAAGCAUGUAAACAUGAGGAUCACCCAUGUCCUCAAUUGCUCGUCUUAU [Sensor 3 - 68] (puzzle: Sensor v3, turn-off variant 2)    842

Form field apparent KD of MS2 coat protein for item GAGAAAGCAAGCAAGUGAAACAUGAGGAUCACCCAUGUCCUCAUUUGCUCGUCUUAUAAGCUAUGCGAAAGCAUAGC [Mat - Sensor v3 - turn-off var 1 - Eli Mod - D50] (puzzle: Sensor v3, turn-off variant 1) on MS2 coat protein: 11.3

====

Reported apparent KD of MS2 coat protein values for the following sequences.
- Tested on: MS2 coat protein
- run_description: apparent KD of MS2 coat protein; designed switch direction (-1 OFF switch, 1 ON switch): 1; higher = weaker reporter binding
- condition_context: input ligand: FMN 200 uM
API: value field is a number in nM; no unit string.

Examples from the recorded data:
CUGAGCGAUCUAGGAUAUCACGUCGUUUAGACGUGAGAAGGAGAUCAUAACAUGAGGAUCACCCAUGUAUUACAUGAAGCUCAG [SSNG1/6-A3] (Eterna round: R96, puzzle: Same State NG 1)    14.9
GUAGCAUACCGAGGAUAUUCAUAUUAAAACAUGAGGAUCACCCAUGUUUAGGCCAAAAGGCCUUGGGAGAAGGCGGAAUGCUAC [Xeonanis - 20 Mod4] (Eterna round: R96, puzzle: Same State NG 2)    19.2
GUAGCAUACCGAGGAUAUUCAUACAUGAGGAUCACCCAUGUUUAAUUAUAGGCCAAAAGGCCUUGGGAGAAGGCGGAAUGCUAC [Xeonanis - 20 Mod14] (Eterna round: R96, puzzle: Same State NG 2)    8.39
CUGAGCGAUUAAGGAUAUCACGUCGUUUAGACGUGAGAAGGUGAUCAUAACAUGAGGAUCACCCAUGUAUUACAUGAAGCUCAG [SSNG1/3-A3] (Eterna round: R96, puzzle: Same State NG 1)    614

Item: AUUAUUUCAUGAGGAUAUGGCACCUUAUUGGUGCCAGAAGGCAUGUCUAUUGACAUGAGGAUCACCCAUGUAUUAUAUUAUAUA [Eli NG1ss - 88] (Eterna round: R96, puzzle: Same State NG 1) | apparent KD of MS2 coat protein: 57.4

Item: AUUGCUAUCACAGGAUAUCAUGCGGAAAUCGCGUGAGAAGGGUGGACUCUGUCAUUCACGGAGGACAUGAGGAUCACCCAUGUC [SS NG10LRO17] (Eterna round: R96, puzzle: Same State NG 1) | apparent KD of MS2 coat protein: 612

Item: GUUACAUGAGGAUCACCCAUGUAUGUGUGGGAGUAAGUGUCUUAGGAUAUCUGUGAUUUAAUUUAAGAGAAGGAAGAUUGUUGU [JMF's solution 32] (Eterna round: R96, puzzle: Same State NG 3) | apparent KD of MS2 coat protein: 126
